Target: BTK(C481S)-GFP (Homo sapiens, UniProt Q06187+Q96SW2, C481S)
Construct: with a mutagenesis reaction on pENTR221-BTK (STOP-Leu); CHYSEL (cis-acting hydrolase element, 2A) remnant after GFP; mCherry is split off as a separate protein (C); expressed in transfected cells; host or cells: TMD8 cells, lentiviral transduction with pLenti6-BTK(C481S)-GFP-CHYSEL-mCherry
Sequence (Q06187 whole entry C481S): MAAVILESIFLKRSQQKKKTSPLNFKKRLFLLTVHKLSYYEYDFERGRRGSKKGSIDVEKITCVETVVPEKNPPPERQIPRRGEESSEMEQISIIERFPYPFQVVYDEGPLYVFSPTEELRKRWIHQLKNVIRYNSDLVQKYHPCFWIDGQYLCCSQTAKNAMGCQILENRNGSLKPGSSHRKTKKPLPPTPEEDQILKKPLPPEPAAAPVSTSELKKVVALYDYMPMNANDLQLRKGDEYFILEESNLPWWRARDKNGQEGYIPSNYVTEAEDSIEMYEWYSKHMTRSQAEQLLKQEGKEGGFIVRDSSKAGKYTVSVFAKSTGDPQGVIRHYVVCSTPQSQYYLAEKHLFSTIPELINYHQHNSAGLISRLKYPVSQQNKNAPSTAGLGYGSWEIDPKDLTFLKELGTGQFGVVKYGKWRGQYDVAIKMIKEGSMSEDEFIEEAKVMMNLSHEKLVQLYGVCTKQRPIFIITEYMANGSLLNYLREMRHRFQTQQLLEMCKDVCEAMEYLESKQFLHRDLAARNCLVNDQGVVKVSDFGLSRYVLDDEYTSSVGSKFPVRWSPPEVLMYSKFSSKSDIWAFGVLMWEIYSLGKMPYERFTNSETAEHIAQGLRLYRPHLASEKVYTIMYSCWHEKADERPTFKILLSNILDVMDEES
Sequence (Q96SW2 whole entry): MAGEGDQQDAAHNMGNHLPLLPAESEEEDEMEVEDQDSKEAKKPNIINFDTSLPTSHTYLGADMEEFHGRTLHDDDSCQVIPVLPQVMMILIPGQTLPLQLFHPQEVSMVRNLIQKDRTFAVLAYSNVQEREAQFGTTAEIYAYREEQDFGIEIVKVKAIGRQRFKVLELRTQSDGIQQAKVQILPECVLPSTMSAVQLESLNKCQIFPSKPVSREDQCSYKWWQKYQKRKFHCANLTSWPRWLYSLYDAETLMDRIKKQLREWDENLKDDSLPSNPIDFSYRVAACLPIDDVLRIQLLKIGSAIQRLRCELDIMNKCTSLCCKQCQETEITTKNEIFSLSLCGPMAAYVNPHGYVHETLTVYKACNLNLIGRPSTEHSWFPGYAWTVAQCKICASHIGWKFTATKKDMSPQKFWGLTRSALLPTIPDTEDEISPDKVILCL
Sequence (Q16531 whole entry partner): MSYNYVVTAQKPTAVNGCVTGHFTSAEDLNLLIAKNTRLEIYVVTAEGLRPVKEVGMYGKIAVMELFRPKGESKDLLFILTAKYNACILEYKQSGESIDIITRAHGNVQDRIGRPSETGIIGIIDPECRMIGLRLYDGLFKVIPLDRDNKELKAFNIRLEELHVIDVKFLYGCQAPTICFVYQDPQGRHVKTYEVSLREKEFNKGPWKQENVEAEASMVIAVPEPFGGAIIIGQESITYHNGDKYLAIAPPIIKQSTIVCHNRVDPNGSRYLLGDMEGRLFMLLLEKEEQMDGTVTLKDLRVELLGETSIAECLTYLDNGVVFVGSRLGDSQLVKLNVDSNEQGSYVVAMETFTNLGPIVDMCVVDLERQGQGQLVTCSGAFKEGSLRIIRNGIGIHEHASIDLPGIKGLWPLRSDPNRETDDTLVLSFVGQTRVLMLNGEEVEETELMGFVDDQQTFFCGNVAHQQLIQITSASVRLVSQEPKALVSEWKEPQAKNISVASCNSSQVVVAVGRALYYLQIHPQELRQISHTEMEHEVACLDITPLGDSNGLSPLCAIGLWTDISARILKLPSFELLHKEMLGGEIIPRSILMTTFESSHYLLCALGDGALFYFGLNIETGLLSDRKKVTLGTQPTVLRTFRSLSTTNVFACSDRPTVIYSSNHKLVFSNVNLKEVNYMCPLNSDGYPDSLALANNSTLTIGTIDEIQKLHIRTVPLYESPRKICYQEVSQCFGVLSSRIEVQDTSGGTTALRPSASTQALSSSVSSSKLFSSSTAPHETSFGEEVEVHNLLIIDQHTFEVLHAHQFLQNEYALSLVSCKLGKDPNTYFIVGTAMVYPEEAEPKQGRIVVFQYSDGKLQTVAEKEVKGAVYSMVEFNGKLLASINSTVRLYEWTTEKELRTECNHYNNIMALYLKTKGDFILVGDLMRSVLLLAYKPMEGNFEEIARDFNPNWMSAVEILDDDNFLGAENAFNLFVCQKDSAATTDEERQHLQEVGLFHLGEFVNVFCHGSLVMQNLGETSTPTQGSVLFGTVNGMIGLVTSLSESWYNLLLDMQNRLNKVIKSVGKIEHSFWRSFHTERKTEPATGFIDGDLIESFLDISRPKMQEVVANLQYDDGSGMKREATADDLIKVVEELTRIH
Assay: BTK(C481S)-GFP protein abundance flow cytometry assay in TMD8 cells
Assay type: cell-based
Details: concentration at which 50% maximal degradation was observed
recorded.metric: DC50 (nM)
The response must be a number in nM with no trailing unit.

INSERT INTO assay_data (molecule, assayed_target, observed_measurement) VALUES
  ('COc1ccc(C(=O)N2CCC(CCN3CCC(OCc4ccc(-c5cc6c(-c7cc(F)cc(NC(=O)N8C[C@H](CC(C)C)[C@@H](O)C8)c7C)ncnc6[nH]5)cc4)CC3)CC2)cc1N1CCC(=O)NC1=O [Compound 22]', 'BTK(C481S)-GFP (Homo sapiens, UniProt Q06187+Q96SW2, C481S)', 0.4),
  ('COc1ccc(C(=O)N2CCC3(CCN(CCc4ccc(-c5cc6c(-c7cc(F)cc(NC(=O)N8C[C@H](CC(C)C)[C@@H](O)C8)c7C)ncnc6[nH]5)cc4)CC3)CC2)cc1N1CCC(=O)NC1=O [Compound 15]', 'BTK(C481S)-GFP (Homo sapiens, UniProt Q06187+Q96SW2, C481S)', 0.9),
  ('COc1ccc(C(=O)N2CCC(OCCN3CCN(Cc4ccc(-c5cc6c(-c7cc(F)cc(NC(=O)N8C[C@H](CC(C)C)[C@@H](O)C8)c7C)ncnc6[nH]5)cc4)CC3)CC2)cc1N1CCC(=O)NC1=O [Compound 2]', 'BTK(C481S)-GFP (Homo sapiens, UniProt Q06187+Q96SW2, C481S)', 0.4),
  ('COc1ccc(C(=O)N2CCC3(CCN(Cc4ccc(-c5cc6c(-c7cc(F)cc(NC(=O)N8C[C@@H](CC(C)C)[C@H](O)C8)c7C)ncnc6[nH]5)cc4)CC3)CC2)cc1N1CCC(=O)NC1=O (racemic) [Compound 5]', 'BTK(C481S)-GFP (Homo sapiens, UniProt Q06187+Q96SW2, C481S)', 1.3);

Prompt: Please give the measured DC50 for this molecule: COc1ccc(C(=O)N2CCC(CN3CCN(Cc4ccc(-c5cc6c(-c7cc(F)cc(NC(=O)N8C[C@H](CC(C)C)[C@@H](O)C8)c7C)ncnc6[nH]5)cc4)CC3)CC2)cc1N1CCC(=O)NC1=O [Compound 12]
Completion: 0.3

Prompt: Please give the measured DC50 for this molecule: COc1ccc(C(=O)N2CCC3(CCN(Cc4ccc(-c5cc6c(-c7cc(F)cc(NC(=O)N8C[C@@H](CC(C)C)[C@H](O)C8)c7C)ncnc6[nH]5)cc4)CC3)CC2)cc1N1CCC(=O)NC1=O [Compound 1]
Completion: 41

---

Molecular target: BTK-GFP (Homo sapiens, UniProt Q06187+Q96SW2)
Construct: the BTK open reading frame (ORF) was first shuttled from a pcDNA-DEST40-BTK vector (Invitrogen library ID INV_20090504v1); expressed in transfected cells; host or cells: HEK293A cells (Invitrogen R70507), lentiviral transduction with pLenti6-BTK-GFP-Ires-RFP, blasticidin-selected
Assay: BTK-GFP protein abundance flow cytometry assay in HEK293A cells
Format: cell-based
Settings: 24 h, % protein remaining at concentration of maximum degradation
recorded.metric: BTK deg Amax %
Note: a bare number is incomplete; add the unit.

Check out these entries, answers already filled in.
INSERT INTO assay_data (smiles_text, assayed_target, recorded_metric, observed_measurement) VALUES
  ('COc1ccc(C(=O)N2CCC(OC3CCN(Cc4ccc(-c5cc6c(-c7cc(F)cc(NC(=O)N8C[C@H](CC(C)C)[C@@H](O)C8)c7C)ncnc6[nH]5)cc4)CC3)CC2)cc1N1CCC(=O)NC1=O', 'BTK-GFP (Homo sapiens, UniProt Q06187+Q96SW2)', 'BTK deg Amax %', '4.5%'),
  ('COc1ccc(C(=O)N2CCC(CN3CCN(Cc4ccc(-c5cc6c(-c7cc(F)cc(NC(=O)N8C[C@H](CC(C)C)[C@@H](O)C8)c7C)ncnc6[nH]5)cc4)CC3)CC2)cc1N1CCC(=O)NC1=O', 'BTK-GFP (Homo sapiens, UniProt Q06187+Q96SW2)', 'BTK deg Amax %', '4.3%'),
  ('COc1ccc(C(=O)N2CCC(OC3CCN(CCc4ccc(-c5cc6c(-c7cc(F)cc(NC(=O)N8C[C@H](CC(C)C)[C@@H](O)C8)c7C)ncnc6[nH]5)cc4)CC3)CC2)cc1N1CCC(=O)NC1=O', 'BTK-GFP (Homo sapiens, UniProt Q06187+Q96SW2)', 'BTK deg Amax %', '2.9%'),
  ('COc1ccc(C(=O)N2CCC3(CCN(CCc4ccc(-c5cc6c(-c7cc(F)cc(NC(=O)N8C[C@@H](CC(C)C)[C@H](O)C8)c7C)ncnc6[nH]5)cc4)CC3)CC2)cc1N1CCC(=O)NC1=O', 'BTK-GFP (Homo sapiens, UniProt Q06187+Q96SW2)', 'BTK deg Amax %', '13%');

Prompt: Please give the measured BTK deg Amax % for this molecule: COc1ccc(C(=O)N2CCC(OCCN3CCN(Cc4ccc(-c5cc6c(-c7cc(F)cc(NC(=O)N8C[C@H](CC(C)C)[C@@H](O)C8)c7C)ncnc6[nH]5)cc4)CC3)CC2)cc1N1CCC(=O)NC1=O
Completion: 2%
